- Target Or System: T1, control peptide mixture P20/HLA-A*02:01 complexes on T2 cells (human)
- T1 construct: whole, on cells; A pool of 20 different peptide/HLA-A*02:01 complexes on one cell population, not a single complex; also called T2-P20
- Assay Details: flow cytometry, scFv phage on T2 cells, anti-M13 + labelled anti-mouse IgG
Attribute: Median MFI (PE-A)

# Binder, Median MFI (PE-A)
data = [
    ("Phage clone 35 (scFv) scFv: SYVLTQPPSASGTPGQRVTISCSGSTFNIGSNTVNWYQQLPATAPKLLIYSNNQRPSGVPDRFSGSKSGTSASLAISGLQSEDAAAYYCAAWDDSLSGHVVFGGGTKLTVLGSRGGGGSGGGGSGGGGSLEMAEVQLVQSGAEVKKPGASVKVSCKASGYTFTSYGISWVRQAPGQGLEWMGWISAYNGNTNYAQKLQGRVTMTTDTSTSTAYMELRSLRSDDTAVYYCARYYESGYPFDWWGQGTLVTVSS", "124 MFI"),
    ("Phage clone 34 (scFv) scFv: QSVLTQPPSVSGAPGQRVTISCTGSSLNLGAGYDVHWYQQFPGTAPKLLIFANTNRPSGVPDRFSASKSGTSASLAITGLQAEDEADYFCQSYDNSLSGYVFGTGTKVTVLGSRGGGGSGGGGSGGGGSLEMAQVQLVQSGAEVKKPGSSVKVSCKASGGTFSSYAISWVRQAPGQGLEWMGGIIPIFGTANYAQKFQGRVTITADESTSTAYMELSSLRSEDTAVYYCARSYWTFEYSIDSWGQGTLVTVSS", "109 MFI"),
    ("Phage clone 36 (scFv, fusion to the phage coat protein not described) scFv: SSELTQDPAVSVALGQTVRITCQGDSLRSYYANWYQQKPGQAPVLVIYAKSNRPSGIADRFSGSSSGNTASLTITGAQAEDEADYYCNSRDSSGNRWVFGGGTKVTVLGSRGGGGSGGGGSGGGGSLEMAEVQLVQSGAEVKKPGASVKVSCKASGYTFTGYYMHWVRQAPGKGLEWMGGFDPEDGETIYAQKFQGRVTMTEDTSTDTAYMELSSLRSEDTAVYYCARSSWWSPVTYYDIWGQGTLVTVSS", "11000 MFI"),
    ("Phage clone 33 (scFv, fusion to the phage coat protein not described) scFv: QSVLTQPPSVSGAPGQRVTIFCTGSSSNIGAGYDVHWYQQLPGTAPKLLIYGNNNRPSGVPDRFSGSKSGTSASLAITGLQAEDEADYYCQSYDTSLTPVFGGGTKLTVLGSRGGGGSGGGGSGGGGSLEMAEVQLVQSGAEVRKPGSSVKVSCKASAGTFNRYSLSWVRQAPGQGLEWVGRIIPIIGVADYAQKFQGRVTITADKSATTAYMELHSLRSEDTAVYYCARQEYSYAMDYWGQGTLVTVSS", "2860 MFI"),
    ("Phage clone 38 (scFv, fusion to the phage coat protein not described) scFv: SYELTQPPSVSVAPGKTARITCGGNNIGSKSVNWYQQKPGQAPVLVIYYDNDRPSGIPERFSGSNSGNTATLTISRVEAGDEADYYCQVWNSSSDHYVFGTGTKVTVLGSRGGGGSGGGGSGGGGSLEMAQMQLVQSGAEVKTTGASVRVSCKASGYTFTDYYLHWVRQAPGQGLEWMGWINPHSGGTNYAQKFQGRVTMTRDTSISTAYMELSSLRSDDTAVYYCAREDYSGSGSSDAWGQGTLVTVSS", "128 MFI"),
    ("Phage clone 32 (scFv) scFv: QSVLTQPPSVSGAPGQRVTISCTGSSSNLGAGYDVHWYQQLPGTAPKVLVYFNNNRPSGVPDRFSGSKSGTSASLAITGLQAEDEADYYCQSYDSSLSASVFGTGTKVTVLGSRGGGGSGGGGSGGGGSLEMAQVQLVESGAEVKKPGASVKVSCKASGYTFTSYTITWVRQAPGQGLEWMGWISPYNGNTNYAQNLQGRVTMTTDTSTTTAYMELRSLTSDDTAVYYCARSWEHGFPYDEWGQGTLVTVSS", "146 MFI"),
]
